Recorded values, source patent US20160046618A1.

Entries and their IC50 values follow.
study-target: Recombinant Cat D (Homo sapiens (Human), UniProt P07339)
Sequence (P07339 65-412): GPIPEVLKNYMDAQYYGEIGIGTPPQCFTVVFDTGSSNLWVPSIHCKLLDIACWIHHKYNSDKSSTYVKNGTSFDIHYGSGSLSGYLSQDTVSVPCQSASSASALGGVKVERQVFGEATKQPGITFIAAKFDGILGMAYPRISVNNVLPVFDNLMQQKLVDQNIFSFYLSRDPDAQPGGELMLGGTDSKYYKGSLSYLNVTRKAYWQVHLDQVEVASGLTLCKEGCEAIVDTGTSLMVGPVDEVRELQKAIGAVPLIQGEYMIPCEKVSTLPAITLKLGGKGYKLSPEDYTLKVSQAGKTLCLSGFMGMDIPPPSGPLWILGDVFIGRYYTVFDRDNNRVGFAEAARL
measurement-description: In vitro enzymatic Cathepsin D (Cat D) FRET assay
Format: biochemical
condition-parameters: read-out: IC50 IP (μM) CatD
readout-name: IC50 (µM)

[
  {
    "structure-notation": "COC[C@]12C[C@H]1[C@@](C)(c1cc(NC(=O)c3cnc(OCCF)cn3)cc(F)c1F)N=C(N)S2",
    "study-target": "Recombinant Cat D (Homo sapiens (Human), UniProt P07339)",
    "readout-name": "IC50",
    "qualifier-operator": ">",
    "result-number": 400
  },
  {
    "structure-notation": "C#CCOc1cnc2c(Nc3ccc(F)c([C@@]4(C)N=C(N)S[C@@]5(C(F)F)C[C@@H]45)c3)ncnc2c1",
    "study-target": "Recombinant Cat D (Homo sapiens (Human), UniProt P07339)",
    "readout-name": "IC50",
    "qualifier-operator": "=",
    "result-number": 34.2
  },
  {
    "structure-notation": "COC[C@]12C[C@H]1[C@@](C)(c1cc(NC(=O)c3cnc(OCC(F)(F)C(F)F)cn3)cc(F)c1F)N=C(N)S2",
    "study-target": "Recombinant Cat D (Homo sapiens (Human), UniProt P07339)",
    "readout-name": "IC50",
    "qualifier-operator": "=",
    "result-number": 2110
  },
  {
    "structure-notation": "Cc1cc(OCC(F)(F)F)cnc1C(=O)Nc1ccc(F)c([C@@]2(C)N=C(N)S[C@@]3(C(F)F)C[C@@H]23)c1",
    "study-target": "Recombinant Cat D (Homo sapiens (Human), UniProt P07339)",
    "readout-name": "IC50",
    "qualifier-operator": "=",
    "result-number": 1110
  },
  {
    "structure-notation": "C[C@]1(c2cc(Nc3nccc4nc(OCc5ncco5)cnc34)cnc2F)N=C(N)S[C@]2(CO)[C@H]1C2(F)F",
    "study-target": "Recombinant Cat D (Homo sapiens (Human), UniProt P07339)",
    "readout-name": "IC50",
    "qualifier-operator": "=",
    "result-number": 601
  },
  {
    "structure-notation": "Cc1nc(COc2cnc3c(Nc4cc(F)c(F)c([C@@]5(C)N=C(N)S[C@@]6(C(F)F)C[C@@H]56)c4)nccc3n2)co1",
    "study-target": "Recombinant Cat D (Homo sapiens (Human), UniProt P07339)",
    "readout-name": "IC50",
    "qualifier-operator": "=",
    "result-number": 91.3
  },
  {
    "structure-notation": "CC(C)(C)NC(=O)[C@]12C[C@H]1[C@@](C)(c1cc(NC(=O)c3ccc(C#N)cn3)ccc1F)N=C(N)S2",
    "study-target": "Recombinant Cat D (Homo sapiens (Human), UniProt P07339)",
    "readout-name": "IC50",
    "qualifier-operator": "=",
    "result-number": 172
  }
]
